# System: Enterococcus faecalis
# testMethodNotes: Antimicrobial activity against Enterococcus faecalis ATCC 29212 incubated for 18 hrs by serial microdilution method
# Type: functional
# measurementConditions: ATCC 29212, 18 h
propertyMeasured: MIC (µg/mL)
Reply with just the number (in µg/mL).

smilesStr: CO[C@H]1/C=C/O[C@@]2(C)Oc3c(C)c(O)c4c(O)c(c(CN5CCC(N(C)C)CC5)c(O)c4c3C2=O)NC(=O)/C(C)=C\C=C\[C@H](C)[C@H](O)[C@@H](C)[C@@H](O)[C@@H](C)[C@H](OC(C)=O)[C@@H]1C
MIC (µg/mL): 8
--
smilesStr: CO[C@H]1/C=C/O[C@@]2(C)Oc3c(C)c(O)c4c(O)c(c(CN5CCC(N6CCC(C(=O)O)CC6)CC5)c(O)c4c3C2=O)NC(=O)/C(C)=C\C=C\[C@H](C)[C@H](O)[C@@H](C)[C@@H](O)[C@@H](C)[C@H](OC(C)=O)[C@@H]1C
MIC (µg/mL): 1
--
smilesStr: CO[C@H]1/C=C/O[C@@]2(C)Oc3c(C)c(O)c4c(O)c(c(CN5CCN(Cc6ccc(F)cc6)CC5)c(O)c4c3C2=O)NC(=O)/C(C)=C\C=C\[C@H](C)[C@H](O)[C@@H](C)[C@@H](O)[C@@H](C)[C@H](OC(C)=O)[C@@H]1C
MIC (µg/mL): 8

For the next question, use this molecule.
**Q:** What MIC appears in the records for this molecule with Enterococcus faecalis? CO[C@H]1/C=C/O[C@@]2(C)Oc3c(C)c(O)c4c(O)c(c(/C=N/Nc5ccnc6cc(Cl)ccc56)c(O)c4c3C2=O)NC(=O)/C(C)=C\C=C\[C@H](C)[C@H](O)[C@@H](C)[C@@H](O)[C@@H](C)[C@H](OC(C)=O)[C@@H]1C
**A:** 8

* * *

# Test system: Staphylococcus aureus
# testMethodNotes: Antimicrobial activity against MLSB-resistant Staphylococcus aureus incubated for 18 hrs by serial microdilution method
# Assay type: functional
Measured MIC, listed per entry.
Note: unit µg/mL is implicit; provide only the numeric part.

smilesStr: CO[C@H]1/C=C/O[C@@]2(C)Oc3c(C)c(O)c4c(O)c(c(CN5CCN(c6ncccn6)CC5)c(O)c4c3C2=O)NC(=O)/C(C)=C\C=C\[C@H](C)[C@H](O)[C@@H](C)[C@@H](O)[C@@H](C)[C@H](OC(C)=O)[C@@H]1C
unitInfo: µg/mL
MIC: 2
//
smilesStr: CO[C@H]1/C=C/O[C@@]2(C)Oc3c(C)c(O)c4c(O)c(c(CN5CCC(N6CCC(C(=O)O)CC6)CC5)c(O)c4c3C2=O)NC(=O)/C(C)=C\C=C\[C@H](C)[C@H](O)[C@@H](C)[C@@H](O)[C@@H](C)[C@H](OC(C)=O)[C@@H]1C
unitInfo: µg/mL
MIC: 0.0078
//
smilesStr: CO[C@H]1/C=C/O[C@@]2(C)Oc3c(C)c(O)c4c(O)c(c(CN5CCN(C(c6ccc(F)cc6)c6ccc(F)cc6)CC5)c(O)c4c3C2=O)NC(=O)/C(C)=C\C=C\[C@H](C)[C@H](O)[C@@H](C)[C@@H](O)[C@@H](C)[C@H](OC(C)=O)[C@@H]1C
unitInfo: µg/mL
MIC: 8

**Q:** Provide value of MIC for this record tested with Staphylococcus aureus: CO[C@H]1/C=C/O[C@@]2(C)Oc3c(C)c(O)c4c(O)c(c(CN5CCN(c6ccccn6)CC5)c(O)c4c3C2=O)NC(=O)/C(C)=C\C=C\[C@H](C)[C@H](O)[C@@H](C)[C@@H](O)[C@@H](C)[C@H](OC(C)=O)[C@@H]1C
**A:** 0.5

meta.source: ChEMBL document CHEMBL4339185
